For each entry below, report its recombinant UMI read abundance (log10) value.
assay: recombinant UMI read abundance after kanamycin selection (control-corrected) (log10(CPM+1)); higher = more efficient recombination; extreme values may be limits of the assay; sequences stand for … in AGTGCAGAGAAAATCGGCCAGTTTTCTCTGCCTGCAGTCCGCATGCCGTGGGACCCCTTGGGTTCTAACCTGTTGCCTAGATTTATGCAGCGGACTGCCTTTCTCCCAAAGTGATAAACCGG…AGGTTGGTTTCACT; site = the 11-nt donor;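 note: IS621 bridge recombinase in Escherichia coli cells against a fixed T5 target plasmid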
Give bare numbers.

[[record]]
sequence_code = "AATCGTCCATGGACCGGTTTTCCCGGTAATCCGTATTTGAT (site AATCGTCCTAT)"
measured = 0.306


Lab note: each sequence below needs its recombinant UMI read abundance (log10) filled in.
1. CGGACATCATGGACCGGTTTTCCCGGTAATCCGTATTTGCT (site TGGACATCTAG)
2. CTACTAACATGGACCGGTTTTCCCGGTAATCCGTATTTGCA (site CTACTAACTTG)
3. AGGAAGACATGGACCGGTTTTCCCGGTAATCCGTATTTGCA (site AAGAGGACTTG)

Given back:
0.773
2.47
0.101

Lab note: each sequence below needs its recombinant UMI read abundance (log10) filled in.
1. CCTAATACATGGACCGGTTTTCCCGGTAATCCGTATTTGGA (site CCTAATACTTC)
2. GCTTGCCCATGGACCGGTTTTCCCGGTAATCCGTATTTGAC (site GCTTGCCCTAT)
3. AGGTACGCATGGACCGGTTTTCCCGGTAATCCGTATTTGCC (site AGGTACGCTGG)

Given back:
1: 0.00465; 2: 0; 3: 2.36

Lab note: each sequence below needs its recombinant UMI read abundance (log10) filled in.
1. CGCGGCCCATGGACCGGTTTTCCCGGTAATCCGTATTTGTT (site CTCGGCCCTAA)
2. TTTATAGCATGGACCGGTTTTCCCGGTAATCCGTATTTGCG (site TTTATAGCTCG)
3. GTATGGACATGGACCGGTTTTCCCGGTAATCCGTATTTGTA (site GTATGCACTTA)

Given back:
1. 0.00821
2. 0.232
3. 0.0152

The values you see were collected from the supplement of paper PMC11208160.
